# assay-remarks: Equilibrium solubility in pH buffers (pH 4.0-6.0) with pH adjustment
# Assay type: physicochemical
# condition-details: pH = 4.0 buffer (50 mM citrate)
Structures can show the parent of a compound that is named as a salt.
Kindly state Area % (purity of supernatant) for each of the entries shown.
Respond numerically; units are Area % and should not be typed.

Asked: Query (molecule): CC(=O)NCC1CCN(Cc2cc(Oc3ccc(N4CCN(CCC(=O)O)CC4)nc3)nc(-c3cc(Cl)cc(Cl)c3)c2)CC1 [Sulfate Type B] ; field requested: Area % (purity of supernatant)
Given back: 99.2

Asked: Query (molecule): CC(=O)NCC1CCN(Cc2cc(Oc3ccc(N4CCN(CCC(=O)O)CC4)nc3)nc(-c3cc(Cl)cc(Cl)c3)c2)CC1 [HCl salt Type F] ; field requested: Area % (purity of supernatant)
Given back: 99.0

Asked: Query (molecule): CC(=O)NCC1CCN(Cc2cc(Oc3ccc(N4CCN(CCC(=O)O)CC4)nc3)nc(-c3cc(Cl)cc(Cl)c3)c2)CC1 [Freeform Type A] ; field requested: Area % (purity of supernatant)
Given back: 99.9

Asked: Query (molecule): CC(=O)NCC1CCN(Cc2cc(Oc3ccc(N4CCN(CCC(=O)O)CC4)nc3)nc(-c3cc(Cl)cc(Cl)c3)c2)CC1 [Fumarate Type A] ; field requested: Area % (purity of supernatant)
Given back: 99.3
